From: patent EP3502102A1

measurement_target: STING (Mus musculus, UniProt Q3TBT3)
Sequence (Q3TBT3 whole entry): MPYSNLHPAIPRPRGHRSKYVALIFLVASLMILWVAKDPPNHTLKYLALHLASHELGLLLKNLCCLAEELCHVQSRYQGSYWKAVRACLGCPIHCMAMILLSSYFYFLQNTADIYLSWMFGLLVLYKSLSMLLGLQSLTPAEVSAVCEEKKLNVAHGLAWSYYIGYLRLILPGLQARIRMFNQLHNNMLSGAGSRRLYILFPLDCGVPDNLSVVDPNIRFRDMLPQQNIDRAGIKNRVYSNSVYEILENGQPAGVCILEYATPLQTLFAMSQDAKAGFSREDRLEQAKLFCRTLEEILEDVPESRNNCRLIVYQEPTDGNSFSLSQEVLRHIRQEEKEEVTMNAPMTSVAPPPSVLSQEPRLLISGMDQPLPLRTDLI
protocol_notes: Type I IFN bioassay of BMDMs stimulated with cGAMP
protocol_conditions: BMDMs pre-treated, 0.02 µM- 2.5 µM, read-out: calculated IC50, production of type I IFNs
pIC50: −log10 of the molar value.
result_type: pIC50

{"columns": ["given_smiles", "result"],
 "data": [
  ["O=C(Nc1ccc2c(c1)oc1ccccc12)c1ccc([N+](=O)[O-])o1", "~7.64"]
]}
